B1: Double-stranded RNA-binding protein Staufen homolog 1, residues 183 to 249; numbered along this chain, O95793 (parent)
chain: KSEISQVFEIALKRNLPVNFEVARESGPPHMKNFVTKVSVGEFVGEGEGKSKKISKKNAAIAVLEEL

# Variants of: B1
# assay-name: abundance fitness (aPCA) (normalised: wild type 0, dead -1); higher = more abundant; growth selection in yeast, the domain comes from the species named
# conditions-used: Homo sapiens
property: abundance fitness
The response must contain the number and no unit.

R14Y = -0.048

Prompt line: Field request: abundance fitness | item: E65C
Response line: -0.348
